Values from patent US20100260765A1

Listing of recorded FACS Geometric Mean Fluorescence by entry.
TARGET: T1, cynomolgus KDR (cynomolgus monkey, UniProt A0A2K5VE63 20-1356)
T1 construct: whole, on cells; also called Cyno KDR
T1 sequence (A0A2K5VE63 entry or part of it): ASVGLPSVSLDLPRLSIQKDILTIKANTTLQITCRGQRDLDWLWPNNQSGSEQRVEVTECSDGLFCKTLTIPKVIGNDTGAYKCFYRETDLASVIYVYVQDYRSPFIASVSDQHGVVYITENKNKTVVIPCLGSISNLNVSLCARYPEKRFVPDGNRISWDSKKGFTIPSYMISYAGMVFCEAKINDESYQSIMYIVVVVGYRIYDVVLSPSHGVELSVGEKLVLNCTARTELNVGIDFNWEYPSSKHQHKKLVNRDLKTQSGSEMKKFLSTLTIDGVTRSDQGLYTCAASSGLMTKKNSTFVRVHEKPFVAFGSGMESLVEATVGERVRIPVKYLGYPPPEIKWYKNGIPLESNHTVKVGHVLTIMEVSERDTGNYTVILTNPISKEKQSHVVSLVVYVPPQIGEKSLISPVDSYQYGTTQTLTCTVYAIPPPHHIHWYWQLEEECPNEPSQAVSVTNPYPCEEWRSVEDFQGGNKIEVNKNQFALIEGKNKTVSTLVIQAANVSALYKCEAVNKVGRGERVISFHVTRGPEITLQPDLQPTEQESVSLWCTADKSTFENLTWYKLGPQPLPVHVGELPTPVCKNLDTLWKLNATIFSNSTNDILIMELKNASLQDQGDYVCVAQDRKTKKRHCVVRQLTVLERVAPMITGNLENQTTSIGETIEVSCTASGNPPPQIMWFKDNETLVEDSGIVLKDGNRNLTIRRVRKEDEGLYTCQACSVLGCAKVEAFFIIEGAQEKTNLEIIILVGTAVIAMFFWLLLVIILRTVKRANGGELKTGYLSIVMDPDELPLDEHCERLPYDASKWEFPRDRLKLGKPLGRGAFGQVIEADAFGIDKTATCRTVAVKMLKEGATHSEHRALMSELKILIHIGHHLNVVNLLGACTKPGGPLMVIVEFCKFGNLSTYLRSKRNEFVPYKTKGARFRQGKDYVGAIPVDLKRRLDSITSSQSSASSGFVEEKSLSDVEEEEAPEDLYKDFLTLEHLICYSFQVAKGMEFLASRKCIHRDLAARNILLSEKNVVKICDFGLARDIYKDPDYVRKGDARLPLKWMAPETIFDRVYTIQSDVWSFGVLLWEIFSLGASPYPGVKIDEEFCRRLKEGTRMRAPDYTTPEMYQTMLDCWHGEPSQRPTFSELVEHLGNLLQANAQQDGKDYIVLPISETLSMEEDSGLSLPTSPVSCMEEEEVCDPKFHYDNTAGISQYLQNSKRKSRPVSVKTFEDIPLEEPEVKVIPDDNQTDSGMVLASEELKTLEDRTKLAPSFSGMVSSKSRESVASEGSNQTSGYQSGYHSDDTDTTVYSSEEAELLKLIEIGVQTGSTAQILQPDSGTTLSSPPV
PROCEDURE TEXT: FACS on Cyno KDR/293T transfectants, antibody 5 ug/mL
Write the number on its own, no unit after it.

Reference set, count: 2
BINDER: 27A3 (antibody, V domains shown, Fully human monoclonal antibody from a XenoMouse hybridoma (IgG2 or IgG4 strain), purified) VH: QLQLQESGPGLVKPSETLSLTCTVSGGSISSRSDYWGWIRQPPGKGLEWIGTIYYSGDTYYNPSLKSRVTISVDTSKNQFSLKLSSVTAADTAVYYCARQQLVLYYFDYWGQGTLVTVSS VL: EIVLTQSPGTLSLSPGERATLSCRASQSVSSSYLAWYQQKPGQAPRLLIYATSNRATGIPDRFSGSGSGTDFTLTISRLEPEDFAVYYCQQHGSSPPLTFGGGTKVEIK
FACS Geometric Mean Fluorescence: 89.7

BINDER: 33E1 (antibody, V domains shown, Fully human monoclonal antibody from a XenoMouse hybridoma (IgG2 or IgG4 strain), purified) VH: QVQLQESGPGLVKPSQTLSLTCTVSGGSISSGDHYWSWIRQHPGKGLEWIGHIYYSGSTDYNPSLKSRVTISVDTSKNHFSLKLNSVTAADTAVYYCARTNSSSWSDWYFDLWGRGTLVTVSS VL: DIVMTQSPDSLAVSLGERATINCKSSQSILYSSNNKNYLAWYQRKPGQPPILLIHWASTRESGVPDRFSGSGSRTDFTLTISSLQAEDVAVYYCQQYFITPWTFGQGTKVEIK
FACS Geometric Mean Fluorescence: 88.5

Q: State the recorded FACS Geometric Mean Fluorescence for this entry: 21H6 (antibody, V domains shown, Fully human monoclonal antibody from a XenoMouse hybridoma, purified) VH: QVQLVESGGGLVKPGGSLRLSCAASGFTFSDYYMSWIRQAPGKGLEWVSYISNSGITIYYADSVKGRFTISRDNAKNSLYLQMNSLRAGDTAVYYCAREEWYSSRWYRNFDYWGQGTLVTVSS VL: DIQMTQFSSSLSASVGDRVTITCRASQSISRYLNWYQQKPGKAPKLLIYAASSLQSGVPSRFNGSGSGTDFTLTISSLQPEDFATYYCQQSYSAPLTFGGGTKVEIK
Result: 102
